- System Under Test: T1, human TREM2 (human, UniProt Q9NZC2 19-174, limits assumed)
- T1 construct: also called triggering receptor expressed on myeloid cells 2
- T1 sequence: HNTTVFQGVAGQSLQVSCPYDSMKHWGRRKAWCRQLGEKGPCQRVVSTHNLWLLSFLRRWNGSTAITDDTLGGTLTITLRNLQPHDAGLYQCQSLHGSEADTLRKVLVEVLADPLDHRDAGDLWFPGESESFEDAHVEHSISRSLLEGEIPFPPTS
- Assay Overview: 1st screen (110 nM or 10 nM)
Output Condition met for records whose Binding Signal (fold over 6E7 Parental antibody) is lower than 4 fold, Condition not met for records at or above 4 fold.

[
  {
    "Binder": "V79 (antibody, V domains shown) VH: EVQLVQSGAEVKKPGESLKISCKGSGYSFTSYWIAWVRQMPGKGLEWMGIIYPGDSDTNYSPSFQGQVTISADKSISTAYLQWSSLKASDTAMYFCARQRTFYYDSSDYFDYWGQGTLVTVSS VL: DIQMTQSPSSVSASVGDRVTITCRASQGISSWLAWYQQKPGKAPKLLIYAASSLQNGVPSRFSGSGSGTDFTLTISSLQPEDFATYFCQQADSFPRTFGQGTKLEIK",
    "Label Class": "Condition met"
  },
  {
    "Binder": "V52 (antibody, V domains shown) VH: EVQLVQSGAEVKKPGESLKISCKGSGYSFESYWIAWVRQMPGKGLEWMGIIYPGDSDTRYSPSFQGQVTISADKSISTAYLQWSSLKASDTAMYFCARGRTFYYDSSDYFDYWGQGTLVTVSS VL: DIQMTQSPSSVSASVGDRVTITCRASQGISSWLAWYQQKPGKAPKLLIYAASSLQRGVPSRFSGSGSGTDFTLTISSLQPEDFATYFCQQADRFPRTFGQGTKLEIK",
    "Label Class": "Condition met"
  },
  {
    "Binder": "V75 (antibody, V domains shown) VH: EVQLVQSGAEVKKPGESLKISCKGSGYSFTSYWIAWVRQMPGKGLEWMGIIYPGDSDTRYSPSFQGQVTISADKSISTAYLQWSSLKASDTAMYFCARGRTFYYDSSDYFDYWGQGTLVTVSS VL: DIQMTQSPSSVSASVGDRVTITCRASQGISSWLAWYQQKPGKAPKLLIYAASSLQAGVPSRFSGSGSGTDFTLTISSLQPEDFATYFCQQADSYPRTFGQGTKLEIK",
    "Label Class": "Condition not met"
  },
  {
    "Binder": "V81 (antibody, V domains shown) VH: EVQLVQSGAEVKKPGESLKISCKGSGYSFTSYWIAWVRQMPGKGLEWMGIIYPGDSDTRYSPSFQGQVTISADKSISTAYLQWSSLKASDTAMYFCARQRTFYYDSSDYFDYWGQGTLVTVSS VL: DIQMTQSPSSVSASVGDRVTITCRASQGISSLLAWYQQKPGKAPKLLIYAASSLQNGVPSRFSGSGSGTDFTLTISSLQPEDFATYFCQQADSFPRTFGQGTKLEIK",
    "Label Class": "Condition met"
  }
]

Would you kindly look at the next entry?
Does V40 (antibody, V domains shown) VH: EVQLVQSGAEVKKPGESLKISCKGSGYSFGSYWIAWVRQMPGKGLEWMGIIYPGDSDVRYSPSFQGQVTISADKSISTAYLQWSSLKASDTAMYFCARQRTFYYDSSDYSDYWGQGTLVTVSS VL: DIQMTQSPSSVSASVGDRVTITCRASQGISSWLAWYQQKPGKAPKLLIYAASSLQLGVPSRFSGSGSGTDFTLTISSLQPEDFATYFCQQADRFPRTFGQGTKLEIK have Binding Signal (fold over 6E7 Parental antibody) strictly under 4 fold?
Condition not met

Data provenance: patent US20250282866A1
